B1: SPACA3 (parent)
chain: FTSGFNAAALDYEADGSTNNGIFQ

variants of: B1; assay: protein stability index of a GFP-peptide fusion (GPS, HEK-293T) (PSI 1-6); higher = more stable; settings: c terminus: a fixed tail appended;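 further: lentivirally expressed fusions sorted by FACS into six bins by GFP to DsRed ratio, PSI derived from sequencing read proportions per bin multiplied by bin number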
Label T when protein stability index >= 2; otherwise F.

Would you please look over these solved cases?
A9H: T
Q24T: T
Q24K: F

// query Kindly determine if protein stability index recorded for `D11W` is above or exactly 2.
// result F

// query API: above_or_equal(metric=protein stability index, cutoff=2) for item `F5K`
// result T

// query Hi team, for `G4W` , is the recorded protein stability index at or above 2?
// result T

// query Tell me whether protein stability index is at least 2 here: `N19L`
// result F

// query Decide: protein stability index of `S17Q` >= 2?
// result T

// query Item `A14F` with protein stability index of 2 or above?
// result T

// query Could you verify whether the entry `L10E` shows protein stability index of no less than 2?
// result T

// query Tell me whether protein stability index is at least 2 here: `D11E`
// result F

// query Does protein stability index meet or surpass 2 for `N19S` ?
// result T

// query Check the entry `G16W` : does protein stability index equal or exceed 2?
// result F

Origin of values: the supplement of paper PMC10567573
